Source: paper PMC7982521

- method summary: Multi-component pharmacokinetics in rat plasma after oral administration of RB, RPA or RB-RPA extracts (UPLC-HRMS, non-compartmental analysis)
- Assay type: in vivo, Sprague-Dawley rats
- protocol conditions: rat plasma, oral RB single extract 45 g-herb/kg, mean ± SD, n = 7
measure name: tmax (min)
Write the number in min without appending the unit.

1. C[C@H]1O[C@@H](O[C@H]2CC[C@@]3(C)[C@@H](CC[C@]4(C)[C@@H]3C=CC3=C5CC(C)(C)CC[C@]5(CO)[C@H](O)C[C@]34C)[C@]2(C)CO)[C@H](O)[C@@H](O[C@@H]2O[C@H](CO)[C@@H](O)[C@H](O)[C@H]2O)[C@H]1O: 40.2

For the next question, use this compound.
IN: Give its tmax value. Item: `CC1(C)CC[C@@]2(CO)C(=C3C=C[C@@H]4[C@@]5(C)CC[C@H](O)[C@@](C)(CO)[C@@H]5CC[C@@]4(C)[C@]3(C)C[C@H]2O)C1`
OUT: 70.2

---

- method summary: Multi-component pharmacokinetics in rat plasma after oral administration of RB, RPA or RB-RPA extracts (UPLC-HRMS, non-compartmental analysis)
- Type: in vivo, Sprague-Dawley rats
- protocol conditions: rat plasma, oral administration of single extract RPA, mean ± SD, n = 7
Where a name gives a salt, the structure may show the parent alone.
Here, each record is paired with measured AUC0-∞ data.
Could you give me the number in µg·h/mL? Just the number is fine.

Reference set (3 entries):
1) C[C@@]12C[C@@]3(O)O[C@@H](O1)[C@]1(CO)[C@H]3C[C@@]12O[C@@H]1O[C@H](CO)[C@@H](O)[C@H](O)[C@H]1O [Desbenzoylpaeoniflorin]: 0.02034
2) CC1C2OC3(C)CC(=O)C1CC3(O)O2 (stereo not shown) [Paeonimetabolin I]: 5.46727
3) C[C@]12C[C@@H](O)[C@@H]3C[C@@]1(O[C@@H]1O[C@H](CO)[C@@H](O)[C@H](O)[C@H]1O)[C@@]3(COC(=O)c1ccccc1)C(=O)O2 [Albiflorin]: 1.21033

Okay, next one:
IN: Fill in: AUC0-∞ of O=S(=O)(O)Oc1cccc(O)c1O [Pyrogallol sulfate] is ___
OUT: 0.18763

---

- method summary: Multi-component pharmacokinetics in rat plasma after oral administration of RB, RPA or RB-RPA extracts (UPLC-HRMS, non-compartmental analysis)
- Assay type: in vivo, Sprague-Dawley rats
- protocol conditions: rat plasma, oral administration of single extract RPA, mean ± SD, n = 7
Structures can show the parent of a compound that is named as a salt.
AUC0-t values by entry
Just the number in ng·h/mL, nothing appended.

Examples with their reported AUC0-t follow.
1) C[C@]12C[C@@H](O)[C@@H]3C[C@@]1(O[C@@H]1O[C@H](CO)[C@@H](O)[C@H](O)[C@H]1O)[C@@]3(COC(=O)c1ccccc1)C(=O)O2: 1202.69
2) O=S(=O)(O)Oc1cccc(O)c1O [Pyrogallol sulfate]: 164.21
3) C[C@@]12C[C@@]3(O)O[C@@H](O1)[C@]1(CO)[C@H]3C[C@@]12O[C@@H]1O[C@H](CO)[C@@H](O)[C@H](O)[C@H]1O: 18.66

IN: So what's the measured AUC0-t for this one? CC1C2OC3(C)CC(=O)C1CC3(O)O2 (stereo not shown) [Paeonimetabolin I]
OUT: 4864.64
